Tested on: HCT-116 (colorectal carcinoma)
Experiment: MTT proliferation assay, HCT-116
Type: cell-based
Conditions: Homo sapiens, 72 h
pIC50: −log10 of the molar value.
Listed below: pIC50 values for each entry.

Observe how each entry below is paired with its result.
molecule	pIC50
O=C1O[C@H]([C@@H](O)Cn2cc(CNS(=O)(=O)c3ccc(Cl)cc3)nn2)C(O)=C1O [Compound 4s]	< 4.00
NC(=O)c1nnn(Cc2cc(Cl)c(C(=O)c3ccc(Cl)cc3)c(Cl)c2)c1N [Carboxyamidotriazole, carboxyamidotriazole, reference compound]	4.70
CC(C)(C)c1cn(C[C@H](O)[C@H]2OC(=O)C(O)=C2O)nn1 [Compound 4o]	< 4.00

Task: Specify reported pIC50 for the molecule shown: COc1ccc(-c2cn(C/C=C3\OC(=O)C(O)=C3O)nn2)cc1 [Compound 7g]
Result: < 4.00

Task: Specify reported pIC50 for the molecule shown: O=C1O[C@H]([C@@H](O)CO)C(O)=C1O [L-ASA, L-ascorbic acid]
Result: < 4.00

Task: Specify reported pIC50 for the molecule shown: O=C1O[C@H]([C@@H](O)Cn2cc(CCO)nn2)C(O)=C1O [Compound 4q]
Result: 4.20

Task: Specify reported pIC50 for the molecule shown: O=C1O/C(=C\Cn2cc(-c3ccccc3O)nn2)C(O)=C1O [Compound 7i]
Result: < 4.00

Task: Specify reported pIC50 for the molecule shown: CCCCCc1ccc(-c2cn(C[C@H](O)[C@H]3OC(=O)C(O)=C3O)nn2)cc1 [Compound 4k]
Result: < 4.00

Task: Specify reported pIC50 for the molecule shown: CCCCCc1ccc(-c2cn(C/C=C3\OC(=O)C(O)=C3O)nn2)cc1 [Compound 7k]
Result: < 4.00
